System: Staphylococcus aureus
Test: Bactericidal activity against Staphylococcus aureus ATCC 29213 incubated for 24 hrs followed by transferring to freshly prepared broth medium and measured after 24 hrs by broth microdilution assay
Format: functional
Conditions: time 48 hrs
REPORTED METRIC: MBC

# annotated cases, reported MBC shown
> print(dat)
                                   compound  reported.metric      result
1  N#CC(C#N)=C1C(=O)Nc2ccc(S(=O)(=O)N3CCOCC3)cc21              MBC  46.2 µg/mL
2  CCOC(=O)/C(C#N)=C1\C(=O)Nc2ccc(S(=O)(=O)N3CCOCC3)cc21              MBC  21.9 µg/mL
3  CCOC(=O)C1=C(N)OC(C)=C(C(C)=O)C12C(=O)Nc1ccc(S(=O)(=O)N3CCOCC3)cc12 (stereo not given)              MBC   100 µg/mL
4  CC(=O)C1=C(C)OC(N)=C(C#N)C12C(=O)Nc1ccc(S(=O)(=O)N3CCOCC3)cc12 (stereo not given)              MBC  85.3 µg/mL
5  CC(=O)C1=C(c2ccccc2)OC(N)=C(C#N)C12C(=O)Nc1ccc(S(=O)(=O)N3CCOCC3)cc12 (stereo not given)              MBC  23.1 µg/mL

MBC for CCOC(=O)C1=C(N)OC(c2ccccc2)=C(C(=O)OCC)C12C(=O)Nc1ccc(S(=O)(=O)N3CCCCC3)cc12 (stereo not given) is 150 µg/mL

MBC for CN(C)[C@@H]1C(O)=C(C(N)=O)C(=O)[C@@]2(O)C(O)=C3C(=O)c4c(O)cccc4[C@@](C)(O)[C@H]3C[C@@H]12 [TETRACYCLINE] is 87.5 µg/mL

###

Below: a set of entries, each annotated with reported zone of inhibition at 500 µg/mL.
System: Aspergillus brasiliensis
Experiment: Antifungal activity against Aspergillus brasiliensis ATCC 16404 assessed as diameter of inhibition zone at 0.5 mg/ml incubated for 72 hrs by agar diffusion method
Assay type: functional
Conditions: read-out: DIZ

# annotated cases, reported zone of inhibition at 500 µg/mL shown
> print(dat)
                                   compound  result
1  CCOC(=O)C1=C(C)OC(N)=C(C#N)C12C(=O)Nc1ccc(S(=O)(=O)N3CCOCC3)cc12 (stereo unspecified)   10 mm
2  CCOC(=O)/C(C#N)=C1\C(=O)Nc2ccc(S(=O)(=O)N3CCOCC3)cc21   18 mm

Consider now this further compound.
// zone of inhibition at 500 µg/mL (Aspergillus brasiliensis) for CCOC(=O)C1=C(C)OC(N)=C(C(=O)OCC)C12C(=O)Nc1ccc(S(=O)(=O)N3CCCCC3)cc12 (stereo unspecified) = 12 mm

###

Below: a set of entries, each annotated with reported MIC.
Tested on: Escherichia coli
Test: Antibacterial activity against Escherichia coli ATCC 25922 assessed as reduction in bacterial growth incubated for 1 day by paper disk diffusion method
Format: functional
Settings: ATCC 25922, 24 h
Give the number; µg/mL is assumed, so skip it.

> print(dat)
                                   compound  result.number
1  CC(=O)C1=C(c2ccccc2)OC(N)=C(C#N)C12C(=O)Nc1ccc(S(=O)(=O)N3CCOCC3)cc12 (configuration not stated)           12.5

MIC for N#CC(C#N)=C1C(=O)Nc2ccc(S(=O)(=O)N3CCCCC3)cc21 is 125

MIC for CCOC(=O)C1=C(N)OC(c2ccccc2)=C(C(=O)OCC)C12C(=O)Nc1ccc(S(=O)(=O)N3CCOCC3)cc12 (configuration not stated) is 35.5
